Test system: AII pressor response
Assay: Assay C: In Vivo Intraduodenal Pressor Assay Response for AII Antagonists
Set-up: species or system rat (male Sprague-Dawley)
Settings: 30 mg/kg i.d.; percent inhibition of AII (30 ng/kg i.v.) pressor response; rats
Protocol: Assay C: In Vivo Intraduodenal Pressor Assay Response for AII Antagonists Male Sprague-Dawley rats weighing 225-300 grams were anesthetized with Inactin (100 mg/kg, i.p.) and catheters were implanted into the trachea, femoral artery, femoral vein and duodenum. Arterial pressure was recorded from the femoral artery catheter on a Gould chart recorder (Gould, Cleveland, Ohio). The fe:moral vein catheter was used for injections of angiotensin II, mecamylamine and atropine. […]

molecule | units_text | Inhibition
CCCCc1nc(CCCC)n(Cc2ccc(-c3ccccc3C(=O)O)cc2)n1 [Example 2] | % | 98
CCCCc1nc(Cl)n(Cc2ccc(-c3ccccc3-c3nnn[nH]3)cc2)n1 [Example 9] | % | 100
CCCCc1nc(C(F)(F)CCC)nn1Cc1ccc(-c2ccccc2-c2nnn[nH]2)cc1 [Example 10] | % | 100
CCCCc1nc(CCCC)n(Cc2ccc(-c3ccccc3-c3nnn[nH]3)cc2)n1 [Example 3] | % | 100
